Target sequence: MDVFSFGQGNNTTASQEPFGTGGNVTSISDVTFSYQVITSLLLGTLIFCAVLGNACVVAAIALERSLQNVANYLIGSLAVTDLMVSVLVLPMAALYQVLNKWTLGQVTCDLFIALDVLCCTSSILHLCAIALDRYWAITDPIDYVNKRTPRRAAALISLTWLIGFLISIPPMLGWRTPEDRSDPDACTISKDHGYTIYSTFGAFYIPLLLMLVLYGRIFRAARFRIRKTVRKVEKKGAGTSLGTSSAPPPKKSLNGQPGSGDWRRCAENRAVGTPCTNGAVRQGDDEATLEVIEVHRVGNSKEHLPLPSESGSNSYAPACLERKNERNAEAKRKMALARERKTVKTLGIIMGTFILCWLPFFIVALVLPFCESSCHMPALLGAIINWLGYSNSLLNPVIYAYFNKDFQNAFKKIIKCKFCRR
Categorized via Ki: lower bin = under 0.5 nM, middle bin = from 0.5 nM up to 3 nM, upper bin = 3 nM and over

Solved entries:
For COc1ccccc1N1CCN(CCN2C(=O)c3cc(I)ccc3C2(O)c2ccccc2)CC1 (stereo not drawn) , which Ki bin applies?
middle bin

For COc1ccccc1N1CCN(CCN2C(=O)c3cc(N)ccc3C2(O)c2ccccc2)CC1 (stereo not drawn) , which Ki bin applies?
middle bin

For "COc1ccccc1N1CCN(CCN(C(=O)c2ccc(I)cc2)c2ccccn2)CC1" , which Ki bin applies?
lower bin

For "COc1ccccc1N1CCN(CCn2c(=O)c3ccccc3c3ccccc32)CC1" , which Ki bin applies?
upper bin

For COc1ccccc1N1CCN(CCN2C(=O)CCC2c2ccc(Br)cc2)CC1 (stereo not drawn) , which Ki bin applies?
middle bin

For COc1ccccc1N1CCN(CCN2C(=O)CCC2c2ccc(I)cc2)CC1 (stereo not drawn) , which Ki bin applies?
middle bin

Next:
For COc1ccccc1N1CCN(CCN2C(=O)c3ccccc3C2c2ccccn2)CC1 (stereo not drawn) , which Ki bin applies?
upper bin

For "COc1ccccc1N1CCN(CCN2Cc3ccccc3C2=O)CC1" , which Ki bin applies?
upper bin

For COc1ccccc1N1CCN(CCN2C(=O)c3cc(I)ccc3C2c2ccccc2)CC1 (stereo not drawn) , which Ki bin applies?
lower bin

For COc1ccccc1N1CCN(CCN2C(=O)c3cc([N+](=O)[O-])ccc3C2(O)c2ccccc2)CC1 (stereo not drawn) , which Ki bin applies?
lower bin

For COc1ccccc1N1CCN(CCN2C(=O)c3cc([N+](=O)[O-])ccc3C2c2ccccc2)CC1 (stereo not drawn) , which Ki bin applies?
lower bin

For COc1ccc([N+](=O)[O-])cc1N1CCN(CCN2C(=O)c3cc(I)ccc3C2c2ccccc2)CC1 (stereo not drawn) , which Ki bin applies?
upper bin
